Test system: NIH-3T3 viability, ATP luminescence
Test: murine fibroblast viability via ATP level – cell-based, murine fibroblasts, cytotoxicity control for Trypanosoma cruzi inhibitor project (AID 1159561)
Settings: 4 days
Active and inactive are the calls of the source.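 How the source made its calls: active means toxic to mouse fibroblast host cells, with IC50 below 50 µM; inactive means the rest.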
Permitted responses: 1 (yes) = active, 0 (no) = inactive

Q: Which outcome was assigned to O=C(c1cnn(-c2ccccc2)n1)N1CCCC(n2ccnc2)C1 (stereo not given) in this test?
Result: 1 (yes)

Q: Query Cc1nn(C2CCS(=O)(=O)C2)c(C)c1CN(C)C(=O)C=Cc1sc2ccccc2c1Cl (stereo not given) next
Result: 0 (no)

Q: Query Cc1c([N+](=O)[O-])c(C(=O)Nc2sc3c(c2C#N)CCC(C)C3)nn1C (stereo not given) next
Result: 1 (yes)

Q: Query O=C(CN(c1cccc(C(F)(F)F)c1)S(=O)(=O)c1ccc(Cl)cc1)NCc1ccc(F)c(F)c1 next
Result: 1 (yes)

Q: Query Cc1nccn1C1CCCN(C(=O)c2cc3c(F)cccc3s2)C1 (stereo not given) next
Result: 1 (yes)
